# Tested On: RhoA (Homo sapiens)
# Construct: made in house; host or cells: E. coli
# Sequence (P61586 whole entry, species assumed): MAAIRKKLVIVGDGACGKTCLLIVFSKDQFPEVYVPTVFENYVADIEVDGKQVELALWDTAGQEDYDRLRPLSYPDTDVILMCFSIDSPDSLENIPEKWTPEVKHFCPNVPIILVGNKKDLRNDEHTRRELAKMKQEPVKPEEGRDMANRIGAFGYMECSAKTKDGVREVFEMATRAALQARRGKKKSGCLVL
# Protocol Summary: Guanine nucleotide exchange of [3H]GDP-loaded GTPase with 6-TGDP (FIG. 13A)
# Assay type: binding
# Recorded Conditions: calculated by compensation equation from appKD 6-TGDP and trueKD GDP; read-out: trueKD 6-TGDP
Property Name: Kd (µM)
Form entry: value (µM) — number only.

### Prompt Answer with reported Kd of Nc1nc2c(ncn2[C@@H]2O[C@H](COP(=O)(O)OP(=O)(O)O)[C@@H](O)[C@H]2O)c(=S)[nH]1 [6-TGDP, 6-thioguanosine diphosphate]
### Response 208

====

# Tested On: RhoC (Homo sapiens)
# Protocol Summary: [3H]GDP displacement of 6-TGDP from .NO2-treated 6-TGDP-loaded GTPase with/without DTT (FIG. 13B)
# Type: binding
# Parameters: made in house; host or cells: E. coli
# Recorded Conditions: without DTT; 6-TGDP-loaded GTPase ~1 μM treated with .NO2 ~3 μM, anaerobic, 1 h; read-out: appKD for [3H]GDP (6-TGDP dissociation)
Property Name: pKd
Scale: negative log10 of molar concentration, which is what pKd denotes.

### Prompt Answer with reported pKd of Nc1nc2c(ncn2[C@@H]2O[C@H](COP(=O)(O)OP(=O)(O)O)[C@@H](O)[C@H]2O)c(=O)[nH]1
### Response 3.00

====

# Tested On: RhoA (Homo sapiens)
# Construct: made in house; host or cells: E. coli
# Protocol Summary: Competitive binding assay, [3H]GDP-loaded Rho protein titrated with 6-TGDP (FIG. 16A)
# Recorded Conditions: [3H]GDP-loaded Rho protein 1 μM titrated with 6-TGDP, read-out: appKD for 6-TGDP
Property Name: Kd
In your response, the unit should come after the numeric value.

### Prompt Answer with reported Kd of Nc1nc2c(ncn2[C@@H]2O[C@H](COP(=O)(O)OP(=O)(O)O)[C@@H](O)[C@H]2O)c(=S)[nH]1 [6-TGDP, 6-thioguanosine diphosphate]
### Response 11.6 µM

====

# Tested On: RhoC (Homo sapiens, UniProt P08134)
# Sequence (P08134 whole entry): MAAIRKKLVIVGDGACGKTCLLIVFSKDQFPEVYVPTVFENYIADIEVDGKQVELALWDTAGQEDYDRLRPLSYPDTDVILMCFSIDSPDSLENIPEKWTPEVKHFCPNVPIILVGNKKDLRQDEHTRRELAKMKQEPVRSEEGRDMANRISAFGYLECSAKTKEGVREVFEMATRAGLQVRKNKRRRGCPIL
# Protocol Summary: Guanine nucleotide exchange of [3H]GDP-loaded GTPase with 6-TGDP (FIG. 13A)
# Type: binding
# Set-up: made in house; host or cells: E. coli
# Recorded Conditions: further determined (Example 2); read-out: trueKD GDP
Property Name: Kd (µM)
Form entry: value (µM) — number only.

### Prompt Answer with reported Kd of Nc1nc2c(ncn2[C@@H]2O[C@H](COP(=O)(O)OP(=O)(O)O)[C@@H](O)[C@H]2O)c(=O)[nH]1 [GDP]
### Response 12

====

# Tested On: RhoC (Homo sapiens, UniProt P08134)
# Protocol Summary: Competitive binding assay, [3H]GDP-loaded Rho protein titrated with 6-TGDP (FIG. 16A)
# Design: made in house; host or cells: E. coli
# Recorded Conditions: [3H]GDP-loaded Rho protein 1 μM titrated with 6-TGDP; FIG. 16A; read-out: appKD for 6-TGDP
Property Name: pKd
Scale: negative log10 of molar concentration, which is what pKd denotes.

### Prompt Find the measured pKd of Nc1nc2c(ncn2[C@@H]2O[C@H](COP(=O)(O)OP(=O)(O)O)[C@@H](O)[C@H]2O)c(=S)[nH]1 [6-TGDP, 6-thioguanosine diphosphate] with RhoC (Homo sapiens, UniProt P08134) as test system.
### Response 4.93

Reference source: patent US8729047B2
